Data origin: ChEMBL document CHEMBL3988442

assayed_target: Sialic acid-binding Ig-like lectin 9 (Homo sapiens) (UniProt Q9Y336)
Sequence (Q9Y336 whole entry): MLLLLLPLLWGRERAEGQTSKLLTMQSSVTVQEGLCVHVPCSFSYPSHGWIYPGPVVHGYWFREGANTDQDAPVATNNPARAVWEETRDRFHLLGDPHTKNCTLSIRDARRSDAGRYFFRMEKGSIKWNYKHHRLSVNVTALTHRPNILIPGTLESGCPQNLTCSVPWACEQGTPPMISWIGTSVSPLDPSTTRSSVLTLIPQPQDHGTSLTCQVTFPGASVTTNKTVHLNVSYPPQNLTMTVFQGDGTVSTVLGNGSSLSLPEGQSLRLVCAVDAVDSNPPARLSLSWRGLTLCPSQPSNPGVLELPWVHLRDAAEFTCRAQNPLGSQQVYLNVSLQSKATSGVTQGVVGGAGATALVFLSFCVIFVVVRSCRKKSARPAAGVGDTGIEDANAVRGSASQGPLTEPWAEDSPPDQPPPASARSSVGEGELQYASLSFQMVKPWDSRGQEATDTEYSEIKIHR
assay_notes: Hs-Siglec9 ALPHAscreen SOP 20170721
Parameters: scale not given: direction of the effect not stated beside the values
settings: 10 µM
quantity: Percent Effect
Enter the number, and then the unit.

O=C(NCCNc1ncccn1)N(Cc1ccc(F)cc1F)C1CC1	16.9%
CCN1CCN(CC(O)c2ccc(OC(F)(F)F)cc2)CC1 (stereo not given)	27.4%
CCC1CN(C(=O)NCCOc2ccc3c(c2)OCO3)CCO1 (stereo not given)	-3.28%
CCOc1ncccc1NC(=O)c1cc(C)c(C)s1	-1.86%
CC(C(=O)N1CCCN(c2ncccc2C#N)CC1)n1cccn1 (stereo not given)	-3.82%
CCc1noc(CNc2cc(F)ccc2OCC2CCCO2)n1 (stereo not given)	1.82%
CCc1nnc2n1CCN(Cc1nc(-c3ccoc3)no1)C2	5.33%
O=C(NCCNc1ccccn1)N1CCSCC1	-0.67%
CC(=O)c1cccc(NC(=O)COc2c(C)n(C)ccc2=O)c1	5.82%
CCn1cnnc1CNC(=O)N1CCOCC1	6.4%

State the recorded Percent Effect for every item in the following list.
1. COc1cc(NC(=O)Cn2ccc3sc(C)cc3c2=O)cc(OC)c1
2. c1cnn(CC2CN(Cc3nc(-c4ccsc4)no3)CCO2)c1 (stereo not given)
3. O=S(=O)(c1cccs1)N1CC[C@H](O)[C@@H]1Cc1ccncc1
4. COCc1noc(-c2ccc(N3CCCCC3CO)nc2)n1 (stereo not given)
5. Cc1nc(CN2CCCC(CCNS(C)(=O)=O)C2)c[nH]1 (stereo not given)

1: 5.78%; 2: 16.5%; 3: -0.784%; 4: 7.35%; 5: 1.08%
